Test system: PRKAA1 or PRKAA2 (rat)
EXPERIMENT_DESCRIPTION: radiometric filter-binding kinase assay
EXPERIMENTAL_PARAMETERS: compound 1.0 µM; accession and sequence are those of the human protein
# residual activity listing for each entry below
For clarity, give the value followed by its unit.

COMPOUND	residual activity
CCCCCc1ccc(/C=C/[C@H](O)[C@@H](CO)NC)cc1	96%

Per the record, "Cc1cc(NC(=O)c2cccc(NC(=O)/C=C/CN(C)C)c2)ccc1Nc1nccc(-c2cccnc2)n1" has residual activity of 77%

Per the record, "COc1cc2ncn(-c3cc(OCc4ccccc4S(C)(=O)=O)c(C#N)s3)c2cc1OC" has residual activity of 10%

Per the record, "Cn1nc(Nc2ccc(F)cc2)c2c(N)ncnc21" has residual activity of 105%

Per the record, "CCn1c(-c2nonc2N)nc2cncc(CNC3CCNCC3)c21" has residual activity of 82%

Per the record, "CCc1cncnc1N1CCN(Cc2nc3cc(C(F)(F)F)ccc3[nH]2)CC1" has residual activity of 88%

Per the record, "NC(=O)c1cc2c(-c3cccc(-c4ccccc4)c3)cnc(N)c2s1" has residual activity of 95%

Per the record, "CCNc1nc(Nc2cc(F)c(C(=O)N3CCOCC3)cc2OC)ncc1C(F)(F)F" has residual activity of 75%

Per the record, "NC(=O)c1ccc(-c2ccc(Oc3cncc4sc(-c5nn[nH]n5)cc34)cc2)cc1" has residual activity of 77%

Per the record, "Cc1cc(SCc2sc(-c3ccc(C(F)(F)F)cc3)nc2C)ccc1OCC(=O)O" has residual activity of 94%

Per the record, "COc1ccc(-n2ncc3cnc(Nc4cc(OC)c(OC)c(OCCCN5CCN(C)CC5)c4)nc32)cc1" has residual activity of 22%

* * *

ASSAY_TARGET: UniProt:P54760
Sequence (P54760 whole entry, looked up): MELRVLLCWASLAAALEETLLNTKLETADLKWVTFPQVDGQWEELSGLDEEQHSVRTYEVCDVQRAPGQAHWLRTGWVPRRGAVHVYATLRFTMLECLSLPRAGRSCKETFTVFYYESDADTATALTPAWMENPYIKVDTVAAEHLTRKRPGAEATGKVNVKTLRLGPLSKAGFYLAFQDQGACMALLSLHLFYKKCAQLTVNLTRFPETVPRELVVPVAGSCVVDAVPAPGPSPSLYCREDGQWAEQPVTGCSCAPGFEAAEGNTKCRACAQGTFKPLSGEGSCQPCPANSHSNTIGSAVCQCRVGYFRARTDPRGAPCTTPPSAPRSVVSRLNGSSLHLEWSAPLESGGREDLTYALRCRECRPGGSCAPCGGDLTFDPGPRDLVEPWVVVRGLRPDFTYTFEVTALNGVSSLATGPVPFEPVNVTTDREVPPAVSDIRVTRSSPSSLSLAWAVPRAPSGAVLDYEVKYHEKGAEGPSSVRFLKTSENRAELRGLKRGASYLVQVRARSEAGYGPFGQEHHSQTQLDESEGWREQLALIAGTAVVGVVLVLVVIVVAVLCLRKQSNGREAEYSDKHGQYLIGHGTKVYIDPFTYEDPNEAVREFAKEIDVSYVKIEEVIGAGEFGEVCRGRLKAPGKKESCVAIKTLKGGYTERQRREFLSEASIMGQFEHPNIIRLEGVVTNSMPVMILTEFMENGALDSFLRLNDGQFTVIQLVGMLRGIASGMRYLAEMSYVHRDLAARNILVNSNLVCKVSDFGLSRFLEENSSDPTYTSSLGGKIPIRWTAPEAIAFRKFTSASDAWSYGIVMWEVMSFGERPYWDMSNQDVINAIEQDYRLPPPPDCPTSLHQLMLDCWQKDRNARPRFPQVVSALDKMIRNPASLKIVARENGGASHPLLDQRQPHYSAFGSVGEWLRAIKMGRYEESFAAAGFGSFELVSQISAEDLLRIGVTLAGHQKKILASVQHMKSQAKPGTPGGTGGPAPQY
EXPERIMENT_DESCRIPTION: radiometric filter-binding kinase assay
EXPERIMENTAL_PARAMETERS: compound 1.0 µM
QUANTITY_MEASURED: residual activity

The cases that follow already have their residual activity on record.
COMPOUND	residual activity
NC(=O)c1cc2c(-c3cccc(-c4ccccc4)c3)cnc(N)c2s1	76%
C=C1C(=O)OC2C1CC/C(C)=C/CCC1(C)OC21 (stereo unspecified)	124%
CC(C)(C#N)c1ccc(N2C(=O)OCc3cnc4ccc(-c5cnc6ccccc6c5)cc4c32)cc1	102%
COc1cc2ncn(-c3cc(OCc4ccccc4S(C)(=O)=O)c(C#N)s3)c2cc1OC	94%
Cc1ccc(=O)n(-c2ccccc2)c1	112%

Per the record, "FC(F)(F)c1ccc(-c2ccc(Oc3cncc4sc(-c5nn[nH]n5)cc34)cc2)cc1" has residual activity of 109%

* * *

# residual activity listing for each entry below
ASSAY_TARGET: STK11 CAB39 STRADA (human) (UniProt Q9Y376+Q7RTN6+Q15831)
Sequence (Q15831 whole entry, looked up): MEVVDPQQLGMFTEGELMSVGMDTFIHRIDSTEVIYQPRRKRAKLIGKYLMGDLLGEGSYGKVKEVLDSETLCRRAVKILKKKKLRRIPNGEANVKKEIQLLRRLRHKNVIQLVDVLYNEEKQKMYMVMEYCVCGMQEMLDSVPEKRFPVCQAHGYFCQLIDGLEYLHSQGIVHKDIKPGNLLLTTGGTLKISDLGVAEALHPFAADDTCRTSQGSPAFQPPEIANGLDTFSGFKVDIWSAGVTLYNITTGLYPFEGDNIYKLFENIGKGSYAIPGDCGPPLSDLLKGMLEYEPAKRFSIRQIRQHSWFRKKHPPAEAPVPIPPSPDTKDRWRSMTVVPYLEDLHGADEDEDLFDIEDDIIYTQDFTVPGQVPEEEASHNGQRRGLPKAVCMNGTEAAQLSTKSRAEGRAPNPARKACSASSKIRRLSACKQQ
Sequence (Q7RTN6 whole entry, looked up): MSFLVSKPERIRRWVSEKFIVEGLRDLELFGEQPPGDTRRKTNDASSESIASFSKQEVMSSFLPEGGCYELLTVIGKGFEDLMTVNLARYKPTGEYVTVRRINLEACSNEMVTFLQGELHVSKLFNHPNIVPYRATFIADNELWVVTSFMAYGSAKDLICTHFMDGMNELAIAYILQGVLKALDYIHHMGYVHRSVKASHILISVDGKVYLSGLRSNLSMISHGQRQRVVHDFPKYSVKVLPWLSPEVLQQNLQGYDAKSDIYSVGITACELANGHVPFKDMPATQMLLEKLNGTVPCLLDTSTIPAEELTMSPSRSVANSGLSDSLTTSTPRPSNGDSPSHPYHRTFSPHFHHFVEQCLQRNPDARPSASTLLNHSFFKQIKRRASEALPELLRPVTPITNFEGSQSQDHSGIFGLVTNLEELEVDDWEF
Sequence (Q9Y376 whole entry, looked up): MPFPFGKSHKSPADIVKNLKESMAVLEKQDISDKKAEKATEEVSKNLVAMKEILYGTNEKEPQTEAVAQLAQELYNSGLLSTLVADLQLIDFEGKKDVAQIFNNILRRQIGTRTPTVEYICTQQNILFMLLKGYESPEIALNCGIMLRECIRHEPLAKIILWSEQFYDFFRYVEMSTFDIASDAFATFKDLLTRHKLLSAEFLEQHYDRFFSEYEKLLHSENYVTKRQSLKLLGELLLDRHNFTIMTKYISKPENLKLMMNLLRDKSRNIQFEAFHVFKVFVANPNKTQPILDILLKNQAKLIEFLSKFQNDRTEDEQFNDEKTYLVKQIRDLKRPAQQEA
EXPERIMENT_DESCRIPTION: radiometric filter-binding kinase assay
EXPERIMENTAL_PARAMETERS: compound 0.1 µM
Give just the numeric value; % need not be written.

The cases that follow already have their residual activity on record.
STRUCTURE_AS_SMILES	OBSERVED
O=C(N[C@@H](COc1ccc2[nH]c(=O)[nH]c2c1)c1ccccc1)c1cccn(Cc2ccc(F)c(F)c2)c1=O	102
Cc1ccc(Sc2cnc(Nc3cccc(Br)n3)s2)cc1C(=O)N1CCN(C(=O)CN)CC1	64
CN1CCN(CCOc2cc(OC3CCOCC3)c3c(Nc4c(Cl)ccc5c4OCO5)ncnc3c2)CC1	112
O=C(NCCCNc1nc(Nc2cccc(CN3CCOCC3)c2)ncc1C1CC1)C1CCC1	109

Entry "COc1cc(O)c2c(c1)/C=C/C[C@H](O)[C@H](O)C(=O)/C=C\C[C@H](C)OC2=O" , tested on STK11 CAB39 STRADA (human) (UniProt Q9Y376+Q7RTN6+Q15831), has a reported residual activity of 138

Entry "NC(=O)c1cc2c(-c3cccc(-c4ccccc4)c3)cnc(N)c2s1" , tested on STK11 CAB39 STRADA (human) (UniProt Q9Y376+Q7RTN6+Q15831), has a reported residual activity of 105

Entry "Cc1cccc(-c2nn(C(=S)Nc3ccccc3)cc2-c2ccnc3ccccc23)n1" , tested on STK11 CAB39 STRADA (human) (UniProt Q9Y376+Q7RTN6+Q15831), has a reported residual activity of 101

Entry "COc1ccc(-n2ncc3cnc(Nc4cc(OC)c(OC)c(OCCCN5CCN(C)CC5)c4)nc32)cc1" , tested on STK11 CAB39 STRADA (human) (UniProt Q9Y376+Q7RTN6+Q15831), has a reported residual activity of 119

Entry "O=C(O)c1ccc(-c2c[nH]c3ncc(-c4ccccc4)cc23)cc1C1CCCC1" , tested on STK11 CAB39 STRADA (human) (UniProt Q9Y376+Q7RTN6+Q15831), has a reported residual activity of 86

* * *

System: PAK2 (human), Q13177 [T402E]
Sequence (Q13177 whole entry T402E, looked up): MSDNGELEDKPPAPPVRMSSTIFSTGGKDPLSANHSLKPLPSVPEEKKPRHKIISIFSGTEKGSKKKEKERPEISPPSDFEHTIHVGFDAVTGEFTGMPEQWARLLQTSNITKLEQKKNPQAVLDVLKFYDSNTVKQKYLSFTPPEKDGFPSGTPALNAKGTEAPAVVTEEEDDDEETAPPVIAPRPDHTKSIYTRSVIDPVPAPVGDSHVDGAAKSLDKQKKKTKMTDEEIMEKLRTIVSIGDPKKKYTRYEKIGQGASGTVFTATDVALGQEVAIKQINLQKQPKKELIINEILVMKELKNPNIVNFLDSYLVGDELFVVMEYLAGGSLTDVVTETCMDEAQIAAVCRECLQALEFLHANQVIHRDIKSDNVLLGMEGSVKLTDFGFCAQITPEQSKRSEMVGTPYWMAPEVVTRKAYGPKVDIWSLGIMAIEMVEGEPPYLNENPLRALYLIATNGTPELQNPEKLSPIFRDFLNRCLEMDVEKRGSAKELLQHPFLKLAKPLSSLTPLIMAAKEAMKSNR
EXPERIMENT_DESCRIPTION: radiometric filter-binding kinase assay
EXPERIMENTAL_PARAMETERS: compound 10.0 µM
QUANTITY_MEASURED: residual activity (%)
Give just the numeric value; % need not be written.

The cases that follow already have their residual activity on record.
STRUCTURE_AS_SMILES	QUANTITY_MEASURED	OBSERVED
CNc1nc(-c2ccc3c(N)n[nH]c3c2)cc(N2C[C@@H](C(=O)NC3CCCCC3)CC[C@H]2C)n1	residual activity	77
COc1cc2ncn(-c3cc(OCc4ccccc4S(C)(=O)=O)c(C#N)s3)c2cc1OC	residual activity	111
O=S(=O)(c1ccc(F)c2nonc12)N1CCN(c2ncc(C(F)(F)F)cc2Cl)CC1	residual activity	98
Cc1ccc(Sc2cnc(Nc3cccc(Br)n3)s2)cc1C(=O)N1CCN(C(=O)CN)CC1	residual activity	16
Cc1ccc(=O)n(-c2ccccc2)c1	residual activity	100

Per the record, "Cc1ccc2c(c1)C(=O)[C@@]1(O)CCN(c3ccccc3)C1=N2" has residual activity of 87

Per the record, "Cc1ccc(-c2ccc3c(ccc4sc5c(c43)NC[C@@H](C)NC5=O)n2)cn1" has residual activity of 93

Per the record, "N#Cc1c(C2CCNCC2)cc(-c2c(O)cccc2OCC2CC2)nc1N" has residual activity of 78

Per the record, "CCCC(CCC)C(=O)O" has residual activity of 86

Per the record, "c1ccc2c(-c3cnn4cc(-c5ccc(N6CCNCC6)cc5)cnc34)ccnc2c1" has residual activity of 94

* * *

ASSAY_TARGET: EPHB1 (human)
EXPERIMENT_DESCRIPTION: radiometric filter-binding kinase assay
EXPERIMENTAL_PARAMETERS: compound 10.0 µM
# residual activity listing for each entry below
Give just the numeric value; % need not be written.

The cases that follow already have their residual activity on record.
STRUCTURE_AS_SMILES	ASSAY_TARGET	UNIT_NAME	OBSERVED
Cc1ccc2c(c1)C(=O)[C@@]1(O)CCN(c3ccccc3)C1=N2	EPHB1 (human)	%	97
COc1cc2ncn(-c3cc(OCc4ccccc4S(C)(=O)=O)c(C#N)s3)c2cc1OC	EPHB1 (human)	%	95
Oc1ccc(/C=C/c2cc(O)cc(O)c2)cc1	EPHB1 (human)	%	97

Per the record, "c1ccc2c(-c3cnn4cc(-c5ccc(N6CCNCC6)cc5)cnc34)ccnc2c1" has residual activity of 100

* * *

# residual activity listing for each entry below
ASSAY_TARGET: MAP3K1 (human)
EXPERIMENT_DESCRIPTION: radiometric filter-binding kinase assay
EXPERIMENTAL_PARAMETERS: compound 1.0 µM
Give just the numeric value; % need not be written.

The cases that follow already have their residual activity on record.
MOLECULE	residual activity (%)
Nc1cccc2c1CN(C1CCC(=O)NC1=O)C2=O (stereo not given)	101
Cc1ccc(-c2ccc3c(ccc4sc5c(c43)NC[C@@H](C)NC5=O)n2)cn1	109
C=C1C(=O)OC2C1CC/C(C)=C/CCC1(C)OC21 (stereo not given)	112

Entry "O=c1c(O)c(-c2ccc(O)c(O)c2)oc2cc(O)c(O)c(O)c12" , tested on MAP3K1 (human), has a reported residual activity of 67

Entry "O=C(NCCCNc1nc(Nc2cccc(CN3CCOCC3)c2)ncc1C1CC1)C1CCC1" , tested on MAP3K1 (human), has a reported residual activity of 137

Entry "CCn1c(-c2nonc2N)nc2cncc(CNC3CCNCC3)c21" , tested on MAP3K1 (human), has a reported residual activity of 93

Entry "NCC(=O)Nc1ccc(-n2nc(C(F)(F)F)cc2-c2ccc3c(ccc4ccccc43)c2)cc1" , tested on MAP3K1 (human), has a reported residual activity of 93

Entry "NC(=O)c1cc2c(-c3cccc(-c4ccccc4)c3)cnc(N)c2s1" , tested on MAP3K1 (human), has a reported residual activity of 73
